- ASSAY_PROTOCOL: Bidirectional transcellular transport of [14C]uric acid in Caco-2 cells
- Format: in vitro ADME, human
- PROTOCOL_CONDITIONS: human, Caco-2, pH 7.4; Control (no inhibitor); BL-to-AP / AP-to-BL permeability
QUANTITY_KIND: efflux ratio at 120 min

**Q:** Looking for the measured efflux ratio at 120 min of O=c1[nH]c(=O)c2[nH]c(=O)[nH]c2[nH]1 [uric acid] , can you help?
**A:** 2.13

* * *

- ASSAY_PROTOCOL: Recovery of [14C]uric acid after intravenous administration in oxonate-treated rats
- Format: in vivo
- PROTOCOL_CONDITIONS: male, Wistar, rat, bile + intestine, iv, 2 µCi/rat, percentage of dose, up to 120 min, read-out: Recovery of [14C]uric acid, Bile+Intestine
QUANTITY_KIND: dose excreted

**Q:** I am curious: what dose excreted value has been reported for O=c1[nH]c(=O)c2[nH]c(=O)[nH]c2[nH]1 ?
**A:** 9.58%

* * *

- ASSAY_PROTOCOL: Clearance of endogenous uric acid (urine, bile, estimated intestine) in oxonate-treated rats
- Assay type: in vivo, rat
- PROTOCOL_CONDITIONS: male, Wistar, rat, urine (relative to plasma AUC), up to 60 min, amount excreted / plasma AUC, read-out: CLrenal of endogenous uric acid
QUANTITY_KIND: CL renal (mL/min)
Only the number, expressed in mL/min, is required.

**Q:** So what's the measured CL renal for this one? O=c1[nH]c(=O)c2[nH]c(=O)[nH]c2[nH]1
**A:** 0.5

* * *

- ASSAY_PROTOCOL: Recovery of [14C]uric acid after intravenous administration in oxonate-treated rats
- Format: in vivo
- PROTOCOL_CONDITIONS: male, Wistar, rat, urine, iv, 2 µCi/rat, percentage of dose, up to 120 min, read-out: Recovery of [14C]uric acid, Urine
- Experimental: Male Wistar rats (280±30 g body weight) used in the present study were treated with potassium oxonate, a uric acid oxidase (uricase) inhibitor. Oxonate-treated rats were established as described previously, [48]. Briefly, rats were anesthetized with 50% urethane (2 mL/kg) and infused with 0.9% NaCl, 0.5% oxonate and 4% mannitol solution from the femoral vein at the flow rate of 3 mL/hr. As a bolus, 0.9% NaCl, 1.5% oxonate and 4% mannitol solution was administered from the jugular vein at 6 mL/kg. […]
QUANTITY_KIND: dose excreted (%)
Provide only the numeric value, understood in %.

**Q:** Returns the measured dose excreted for the input compound. Input: O=c1[nH]c(=O)c2[nH]c(=O)[nH]c2[nH]1 [uric acid]
**A:** 42.6

* * *

- SYSTEM: rBcrp (Rattus norvegicus)
- Sequence (Q80W57 1-657): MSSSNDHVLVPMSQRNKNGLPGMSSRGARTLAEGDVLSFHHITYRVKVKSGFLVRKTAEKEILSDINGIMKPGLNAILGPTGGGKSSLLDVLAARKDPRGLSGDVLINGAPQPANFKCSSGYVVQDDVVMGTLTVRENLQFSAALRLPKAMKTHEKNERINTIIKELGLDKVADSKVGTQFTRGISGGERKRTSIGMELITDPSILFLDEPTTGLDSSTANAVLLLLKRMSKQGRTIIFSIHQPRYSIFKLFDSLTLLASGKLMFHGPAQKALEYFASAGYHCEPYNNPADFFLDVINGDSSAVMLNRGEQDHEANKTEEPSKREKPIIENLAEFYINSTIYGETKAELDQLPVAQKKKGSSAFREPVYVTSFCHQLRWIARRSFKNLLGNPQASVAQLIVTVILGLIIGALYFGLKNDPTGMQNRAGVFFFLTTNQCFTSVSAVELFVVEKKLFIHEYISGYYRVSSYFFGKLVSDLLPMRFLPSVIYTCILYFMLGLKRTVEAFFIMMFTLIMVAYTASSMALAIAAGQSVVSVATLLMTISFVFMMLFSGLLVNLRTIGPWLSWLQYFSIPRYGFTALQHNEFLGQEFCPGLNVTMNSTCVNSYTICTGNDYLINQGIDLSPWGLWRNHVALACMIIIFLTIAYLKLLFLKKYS
- ASSAY_PROTOCOL: [14C]uric acid uptake by rBcrp-expressing membrane vesicles
- Type: biochemical
- Set-up: purchased GenoMembrane Inc. (Yokohama, Japan); host or cells: Sf9 cells
- PROTOCOL_CONDITIONS: [14C]uric acid uptake by vesicles, inhibitor concentrations only in Fig. 2C
- Experimental: hBCRP/rBcrp, hMRP2/rMrp2, or hMDR1-expressing membrane vesicles prepared from Sf9 cells were purchased from GenoMembrane Inc. (Yokohama, Japan). Uptake experiments were conducted as described previously. […] The filters were dried and dissolved in Clearsol-I for quantitation of radioactivity.
QUANTITY_KIND: Inhibition of rBcrp-mediated transport of uric acid

Sample answers from the record:
MOLECULE	READING
O=C(O)c1ccccc1O [salicylic acid]	not affected
CC(C(=O)O)c1cccc(C(=O)c2ccccc2)c1 (stereo not drawn) [ketoprofen]	not affected
COc1cc2c(cc1OC)CN(CCc1ccc(NC(=O)c3cccc4c(=O)c5cccc(OC)c5[nH]c34)cc1)CC2 [elacridar]	strongly inhibited
COc1ccc2c3c([nH]c2c1)[C@H](CC(C)C)N1C(=O)[C@H](CCC(=O)OC(C)(C)C)NC(=O)[C@@H]1C3 [Ko143, reference compound]	strongly inhibited

Please find the next molecule below.
**Q:** Item under review: C[C@]12CC[C@@H]3c4ccc(OS(=O)(=O)O)cc4CC[C@H]3[C@@H]1CCC2=O [estrone-3-sulfate] . Reported Inhibition of rBcrp-mediated transport of uric acid?
**A:** strongly inhibited
